This collection of values is drawn from patent US6579720B1.

assay: IAM chromatography, normalized capacity factor on esterIAM.PE C10/C3
Assay type: physicochemical
assay context: 15% acetonitrile + 85% 0.03 M NH4OAc buffer pH 7.4, 1 mL/min
readout label: IAM.PE (αk′)
Form: value (number only, do not type unit).

// query # get_value(readout='IAM.PE (αk′)', item= CCn1cc(C(=O)O)c(=O)c2cc(F)c(N3CCNCC3)cc21 [Norfloxacin] )
// result 1.31

// query # get_value(readout='IAM.PE (αk′)', item= Cc1cn([C@H]2C[C@H](N=[N+]=[N-])[C@@H](CO)O2)c(=O)[nH]c1=O [AZT] )
// result 0.76

// query # get_value(readout='IAM.PE (αk′)', item= CCN(CC)C(=O)c1cccnc1 [Nikethamide] )
// result 1.55

// query # get_value(readout='IAM.PE (αk′)', item= COc1cc(CCN)cc(OC)c1OC [Mescaline] )
// result 1.95

###

assay: IAM chromatography, normalized capacity factor on esterIAM.PC C10/C3
Assay type: physicochemical
assay context: 15% acetonitrile + 85% 0.03 M NH4OAc buffer pH 7.4, 1 mL/min
Source text: The preferred, if not only surfaces capable of measuring membrane binding constants so far are from a group of immobilized artificial membranes (IAMs). IAMs consist of a monolayer of phospholipids covalently immobilized to a silica surface. Five types of IAM surfaces are typically used: phosphatidylcholine (PC), phosphatidylethanolamine (PE), phosphatidylserine (PS), sphingomyelin (SM), and cholesterol (CL). […]
Provide the recorded IAM.PC (αk′) for the entries that follow.

// query # get_value(readout='IAM.PC (αk′)', item= CCN(CC)C(=O)c1cccnc1 [Nikethamide] )
// result 0.33

// query # get_value(readout='IAM.PC (αk′)', item= COc1cc(CCN)cc(OC)c1OC [Mescaline] )
// result 0.62

// query # get_value(readout='IAM.PC (αk′)', item= Cc1cn([C@H]2C[C@H](N=[N+]=[N-])[C@@H](CO)O2)c(=O)[nH]c1=O [AZT] )
// result 0.36

// query # get_value(readout='IAM.PC (αk′)', item= CCn1cc(C(=O)O)c(=O)c2cc(F)c(N3CCNCC3)cc21 [Norfloxacin] )
// result 0.64

###

assay: IAM chromatography, normalized capacity factor on esterIAM.PS C10/C3
Format: physicochemical
assay context: 15% acetonitrile + 85% 0.03 M NH4OAc buffer pH 7.4, 1 mL/min
Provide the recorded IAM.PS (αk′) for the entries that follow.

// query # get_value(readout='IAM.PS (αk′)', item= COc1cc(CCN)cc(OC)c1OC [Mescaline] )
// result 11.39

// query # get_value(readout='IAM.PS (αk′)', item= Cc1cn([C@H]2C[C@H](N=[N+]=[N-])[C@@H](CO)O2)c(=O)[nH]c1=O [AZT] )
// result 0.36

// query # get_value(readout='IAM.PS (αk′)', item= CCN(CC)C(=O)c1cccnc1 [Nikethamide] )
// result 0.61

// query # get_value(readout='IAM.PS (αk′)', item= CCn1cc(C(=O)O)c(=O)c2cc(F)c(N3CCNCC3)cc21 [Norfloxacin] )
// result 8.09

###

assay: IAM chromatography, normalized capacity factor on IAM.SM C10/C3
Type: physicochemical
assay context: 15% acetonitrile + 85% 0.03 M NH4OAc buffer pH 7.4, 1 mL/min
Provide the recorded IAM.SM (αk′) for the entries that follow.
Form: value (number only, do not type unit).

// query # get_value(readout='IAM.SM (αk′)', item= CCN(CC)C(=O)c1cccnc1 [Nikethamide] )
// result 0.30

// query # get_value(readout='IAM.SM (αk′)', item= CCn1cc(C(=O)O)c(=O)c2cc(F)c(N3CCNCC3)cc21 [Norfloxacin] )
// result 2.09

// query # get_value(readout='IAM.SM (αk′)', item= Cc1cn([C@H]2C[C@H](N=[N+]=[N-])[C@@H](CO)O2)c(=O)[nH]c1=O [AZT] )
// result 0.26

// query # get_value(readout='IAM.SM (αk′)', item= COc1cc(CCN)cc(OC)c1OC [Mescaline] )
// result 0.49
